# assayed-target: Polyamine deacetylase HDAC10 (Homo sapiens, UniProt Q969S8)
# Sequence (Q969S8 whole entry): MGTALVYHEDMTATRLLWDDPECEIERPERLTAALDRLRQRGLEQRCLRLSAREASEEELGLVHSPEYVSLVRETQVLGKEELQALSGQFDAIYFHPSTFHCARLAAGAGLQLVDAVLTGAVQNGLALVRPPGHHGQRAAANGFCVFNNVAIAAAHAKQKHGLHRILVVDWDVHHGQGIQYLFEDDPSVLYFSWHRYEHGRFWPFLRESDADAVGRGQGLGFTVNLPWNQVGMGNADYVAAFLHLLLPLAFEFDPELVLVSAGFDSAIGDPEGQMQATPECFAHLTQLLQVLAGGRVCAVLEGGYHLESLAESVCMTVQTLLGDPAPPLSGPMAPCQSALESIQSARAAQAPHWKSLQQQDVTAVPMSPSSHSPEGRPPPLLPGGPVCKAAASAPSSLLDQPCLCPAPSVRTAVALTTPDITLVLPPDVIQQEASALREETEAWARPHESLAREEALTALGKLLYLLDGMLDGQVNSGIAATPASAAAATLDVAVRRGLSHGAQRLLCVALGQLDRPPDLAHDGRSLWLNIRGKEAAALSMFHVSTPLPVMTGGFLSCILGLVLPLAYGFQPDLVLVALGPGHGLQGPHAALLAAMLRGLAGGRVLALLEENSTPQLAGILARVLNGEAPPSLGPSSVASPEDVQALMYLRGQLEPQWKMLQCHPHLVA
# assay-remarks: Inhibition of recombinant human HDAC10 expressed in baculovirus-infected insect cells using fluorogenic peptide RHKKAc as substrate by fluorimeter
pKi: −log10 of the molar value.

molecule | pKi
CN1C(=O)C2CN(Cc3c2c2ccccc2n3Cc2ccc(C(=O)NO)cc2)C1=O (stereo unspecified) | 6.34

----------
# assayed-target: Histone deacetylase 8 (Homo sapiens)
# Sequence (Q9BY41 whole entry, the tested form may be a part): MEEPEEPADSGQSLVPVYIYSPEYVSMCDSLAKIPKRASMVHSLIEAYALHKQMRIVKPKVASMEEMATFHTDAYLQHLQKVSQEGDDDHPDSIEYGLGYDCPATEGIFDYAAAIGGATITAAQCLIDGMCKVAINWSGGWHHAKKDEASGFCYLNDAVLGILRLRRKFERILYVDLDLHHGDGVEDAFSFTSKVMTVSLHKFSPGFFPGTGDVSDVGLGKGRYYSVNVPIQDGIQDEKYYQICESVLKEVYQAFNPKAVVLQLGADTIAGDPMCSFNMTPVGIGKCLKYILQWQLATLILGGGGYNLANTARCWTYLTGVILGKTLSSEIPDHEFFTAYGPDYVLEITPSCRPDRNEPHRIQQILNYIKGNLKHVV
# assay-remarks: Inhibition of recombinant human C-terminal His-tagged HDAC8 (1 to 377 residues) expressed in baculovirus-infected insect cells using RHK(Ac)K(Ac)AMC as substrate after 60 mins by fluorimeter
pKi: −log10 of the molar value.
reported-metric: pKi

molecule | value-prefix | assay-value
CN1C(=O)C2CN(Cc3c2c2ccccc2n3Cc2ccc(C(=O)NO)cc2)C1=O (stereo not drawn) | = | 6.76
COc1ccc2c3c(n(Cc4ccc(C(=O)NO)cc4)c2c1)CN1CC3C(=O)N(C)C1=O (stereo not drawn) | = | 7.03
COc1ccc2c(c1)c1c(n2Cc2ccc(C(=O)NO)cc2)CN2CC1C(=O)N(C)C2=O (stereo not drawn) | = | 6.91
CN1C(=O)C2CN(Cc3c2c2ccccc2n3Cc2cccc(/C=C/C(=O)NO)c2)C1=O (stereo not drawn) | = | 7.88
CN1CC2CN(Cc3c2c2ccccc2n3Cc2ccc(C(=O)NO)cc2)C1=O (stereo not drawn) | = | 6.28
O=C(/C=C/c1ccc(Cn2c3c(c4ccccc42)CCN2C(=O)CCCC32)cc1)NO (stereo not drawn) | = | 6.14
CN1C(=O)N2Cc3c(c4ccccc4n3Cc3ccc(C(=O)NO)cc3)C(C2)C1=S (stereo not drawn) | = | 6.15
CN1C(=O)C2c3c(n(Cc4ccc(C(=O)NO)cc4)c4ccccc34)CCN2C1=O (stereo not drawn) | = | 6.12
CN1C(=O)C2CN(Cc3c2c2cc(OCCN4CCOCC4)ccc2n3Cc2ccc(C(=O)NO)cc2)C1=O.Cl (stereo not drawn) | = | 6.14
CN1CN2Cc3c(c4ccccc4n3Cc3ccc(C(=O)NO)cc3)C(C2)C1=O (stereo not drawn) | = | 6.37
CN1C(=O)C2CN(Cc3c2c2ccccc2n3Cc2ccc(C(=O)O)cc2)C1=O (stereo not drawn) | < | 4.40
O=C(NO)c1ccc(Cn2c3c(c4ccccc42)C2CCN(C3)C2)cc1 (stereo not drawn) | = | 5.81
CN1C(=O)[C@@H]2CN(Cc3c2c2ccccc2n3Cc2ccc(C(=O)NO)cc2)C1=O | = | 6.00
CN1C(=O)C2CN(Cc3c2c2ccccc2n3Cc2ccc(/C=C/C(=O)NO)cc2)C1=O (stereo not drawn) | = | 6.69
CN1C(=O)[C@H]2CN(Cc3c2c2ccccc2n3Cc2ccc(C(=O)NO)cc2)C1=O | = | 6.53
O=C(NO)c1ccc(Cn2c3c(c4ccccc42)CCN2C(=O)CCCC32)cc1 (stereo not drawn) | = | 5.78
CN1C(=O)C2CN(Cc3c2c2ccccc2n3Cc2ccc(C(=O)NO)cc2)C1=S (stereo not drawn) | = | 7.39
COc1ccc2c(c1)c1c(n2Cc2ccc(C(=O)NO)cc2)CN2CC1C(=O)N(C)C2 (stereo not drawn) | = | 6.52
